- System: SK-MEL-5
- Measurement Protocol: NCI tumour cell line growth inhibition, 48 h
Activity calls are given as the source filed them. No stated cut-off is given here; in the data, active = GI50 up to about 1.1 µM and inactive = higher.
Value Type: GI50

[
  {
    "Molecule": "O=C(CC1(O)CCCCC1)OC1CCCC1",
    "GI50": "> 100 µM (inactive)"
  }
]

Q. Given the entry CCOC(=O)c1cc2c(OCc3ccccc3)c(OC)cc3c2c(n1)N(c1ccc(OC)cc1)C(C)C3 (stereo not given) , report its measured GI50.
A. > 50 µM (inactive)

Q. For the molecule shown here, Cc1ccc(NC(=O)c2nc(S)nc(N)c2-c2ccccc2C)cc1C , give the reported GI50.
A. > 100 µM (inactive)

Q. May I ask what GI50 has been recorded for NNC(=O)C(=O)N/N=C(\CCC(=O)Nc1ccc(Cl)cc1)Cc1nc2ccccc2s1 ?
A. 21.8 µM (inactive)

Q. Quick one: GI50 of CNC(=O)C(C)C1C(=O)/C(=C(O)/C=C\C(C)=C\C(C)C2OC3(C)OC(C=CC34CO4)C2C)C(=O)N1C1CCC(O)C(C)O1 (stereo not given) ?
A. > 100 µM (inactive)
